Tested on: HCC-2998 colon
EXPERIMENT: NCI-60 one-dose screen, 48 h (100 = growth as untreated, 0 = no growth, -100 = all killed)
CONDITIONS_USED: 10 µM unless noted
This is part of a sample that, as a whole, favours compounds with a hit. Of some 83,000 tested, about 20% had one in any assay.
QUANTITY: growth (%)
Output spec: scalar in %, unitless text.

Q) Data request, read-out growth, for Cc1ccc(-c2cc3nc(C(Cl)Cl)nc(-c4ccco4)n3n2)cc1
A) -50

Q) Data request, read-out growth, for O=S(=O)(NCCCNc1nccc(-c2[nH]c(-c3ccccc3)nc2-c2ccc(Cl)c(O)c2)n1)c1cccc2ccccc12
A) 70

Q) Data request, read-out growth, for COc1cc(-c2nn(C(C)(C)C)cc2-c2ccnc(NCCCNS(=O)(=O)c3ccc(Cl)cc3)n2)ccc1Cl
A) 108

Q) Data request, read-out growth, for O=C(NNc1nc2cc(F)ccc2n2c(CN3CCC(O)C3)ccc12)c1cnccn1 (stereo not given)
A) 38.5

Q) Data request, read-out growth, for CC[C@@H](CO)Nc1ccc2ncc(C#Cc3cncc(C(=O)Nc4ccc(CN5CCN(C)CC5)c(C(F)(F)F)c4)c3)n2n1
A) -43.2

====

Assign growth to each entry below.
Tested on: HCT-15 colon
EXPERIMENT: NCI-60 one-dose screen, 48 h (100 = growth as untreated, 0 = no growth, -100 = all killed)
CONDITIONS_USED: 10 µM unless noted
Compounds without any hit were thinned out: in the full panel of roughly 83,000, 20% have a hit.
Output spec: scalar in %, unitless text.

Q) Data request, read-out growth, for COc1cc(-c2nc3sccn3c2-c2ccnc(S(C)(=O)=O)n2)ccc1F
A) 77.9

Q) Data request, read-out growth, for O=C1CC(=O)N2CSCN(C(c3ccccc3)c3nc4ncncc4[nH]3)C2=N1 (centres undefined)
A) 100

Q) Data request, read-out growth, for CC1(C)NCCC[C@]2(C)[C@H]3C/C(=N\O)C4[C@@H]5C[C@@](C)(CO)CC[C@]5(C)CC[C@@]4(C)[C@]3(C)CC[C@@H]12 (some centres undefined)
A) 93.1

Q) Data request, read-out growth, for COc1ccc(NC(=O)CSc2nnc(-c3ccc4nc(-c5ccc(OC)c(OC)c5)[nH]c4c3)o2)cc1OC
A) 108

====

System: SR leukemia
EXPERIMENT: NCI-60 one-dose screen, 48 h (100 = growth as untreated, 0 = no growth, -100 = all killed)
CONDITIONS_USED: 10 µM unless noted
About 83,000 compounds went through this panel and 20% of them were active in at least one assay; those are over-represented in the sample as a whole.
Assign growth to each entry below.
Output spec: scalar in %, unitless text.

Q) Request - read-out growth | tested on SR leukemia | compound Nc1ncc(-c2ccc3ncnc(Nc4cccc(Cl)c4F)c3c2)cn1
A) 66.3

Q) Request - read-out growth | tested on SR leukemia | compound COc1ccccc1NC1=C(Cl)C(=O)c2nc(C)ccc2C1=O
A) -27.9

Q) Request - read-out growth | tested on SR leukemia | compound Nc1ncc(-c2ccc(NS(=O)(=O)c3ccc(Cl)c(Cl)c3)cc2)[nH]1
A) 76.6

Q) Request - read-out growth | tested on SR leukemia | compound N=c1c2cc(-c3ccccc3)oc2ncn1/N=C/c1ccc(Br)cc1
A) 30.1

Q) Request - read-out growth | tested on SR leukemia | compound Cc1c(Cl)cccc1S(=O)(=O)Nc1ccc2c(c1)C(=O)N(C1CCC(=O)NC1=O)C2=O (stereo not given)
A) 97.1

Q) Request - read-out growth | tested on SR leukemia | compound Cc1ccc(-n2cc(/C=C/C(=O)c3ccc(O)cc3)c(-c3ccc(S(C)(=O)=O)cc3)n2)cc1
A) 55.1

Q) Request - read-out growth | tested on SR leukemia | compound C#CCOc1ccc(/C=N\Nc2nc(-c3ccc(C)cc3)cs2)cc1OC
A) 83.2

Q) Request - read-out growth | tested on SR leukemia | compound O=C(NNc1nc2cc(F)c(F)cc2n2cccc12)c1cnccn1
A) 15.3

Q) Request - read-out growth | tested on SR leukemia | compound N=c1c2cc(-c3ccccc3)oc2ncn1/N=C/c1ccc(Cl)cc1
A) 35.3

Q) Request - read-out growth | tested on SR leukemia | compound O=C(CSc1nc2ccccc2c(=O)n1-c1ccccc1)Nc1cccc(C(=O)/C=C/c2ccccc2)c1
A) 77.5

These measurements were taken from PubChem BioAssay (NCI).
